# System: SF-268
# method: NCI tumour cell line growth inhibition, 48 h
Activity calls are given as the source filed them. No stated cut-off is given here; in the data, active = GI50 up to about 1.1 µM and inactive = higher. Non-standard residues stand in square brackets, D forms with d. Residues, ends and D or L forms follow the SMILES beside them. ξ: configuration not given here. Pentanoyl(2-O,4-OH,5-Cl) = O=C(O)C(O)CC(O)CCl; Ile(3ξ) = CCC(C)[C@H](N)C(=O)O; NMeV = CN[C@H](C(=O)O)C(C)C; NMeA = CN[C@@H](C)C(=O)O; βAla = NCCC(=O)O
outcome.measure: GI50

O=[N+]([O-])c1ccc(-c2cnc3ccccn23)cc1 ... > 100 µM (inactive)
Cc1ccc(C(=O)Nc2ccc(CP(=O)(O)O)cc2CP(=O)(O)O)cc1NC(=O)c1cccc(N)c1 ... > 100 µM (inactive)

Prompt: Which GI50 is listed for `CCOc1cc(-c2nc3ccccn3c2/N=C/c2cc([N+](=O)[O-])cc([N+](=O)[O-])c2O)ccc1O` ?
Response: > 100 µM (inactive)

Prompt: Which GI50 is listed for `O=C(O)c1ccc(Nc2c3ccccc3nc3ccccc23)cc1` ?
Response: 67.9 µM (inactive)

Prompt: Which GI50 is listed for `CCNc1nc(N)c(C(=O)c2ccc(Cl)cc2)s1` ?
Response: 30.7 µM (inactive)

Prompt: Which GI50 is listed for `CC1=CC(=O)/C(=C/N2CCNC2=S)C(=O)O1` ?
Response: > 100 µM (inactive)

Prompt: Which GI50 is listed for O=C(Nc1ccccc1)OCCN=C1c2ccccc2C(Br)C(Br)c2ccccc21 (configuration not stated) ?
Response: 10.5 µM (inactive)

Prompt: Which GI50 is listed for `CC(=O)Oc1ccc2c(c1)oc1c3ccc(OC(C)=O)cc3n(C)c(=O)c21` ?
Response: 12.5 µM (inactive)

Prompt: Which GI50 is listed for `CC(=O)OC1(C)C=CC(=O)C=C1` ?
Response: 31 µM (inactive)

Prompt: Which GI50 is listed for O=C1CC2(CCCc3sccc32)C(=O)N1 (configuration not stated) ?
Response: > 100 µM (inactive)

Prompt: Which GI50 is listed for CCC(C)[C@@H]1NC(=O)[C@@H]2CCCN2C(=O)C(CC(O)CCl)OC(=O)CCNC(=O)[C@H](C)N(C)C(=O)[C@H](C(C)C)N(C)C1=O (some centres not stated) (cyclo([Ile(3ξ)][NMeV][NMeA][βAla][Pentanoyl(2-O,4-OH,5-Cl)]P)) ?
Response: > 100 µM (inactive)

Prompt: Which GI50 is listed for `CC1=NN(C(=O)Cc2ccccc2)C(=O)/C1=C\c1cccc(O)c1` ?
Response: > 100 µM (inactive)

---

# Tested on: BT-549
# method: NCI tumour cell line growth inhibition, 48 h
The source made the active and inactive calls. No stated cut-off is given here; in the data, active = GI50 up to about 1.1 µM and inactive = higher.
Recorded GI50 for the following molecules

In the examples that follow, each entry is paired with its recorded GI50.
C(=C\c1ccco1)/c1cccc(/C=C/c2ccco2)n1 ... > 50 µM (inactive)
C/C(=N\Nc1nc2ccccc2s1)c1ccncn1 ... 4.15 µM (inactive)
Cc1ccc(C(=O)Nc2ccc(CP(=O)(O)O)cc2CP(=O)(O)O)cc1NC(=O)c1cccc(N)c1 ... > 100 µM (inactive)

Prompt: Which GI50 is listed for `N#Cc1c(O)c(C=O)c(=O)n2c1[nH]c1ccccc12` ?
Response: > 100 µM (inactive)

Prompt: Which GI50 is listed for `O=C(NCCCCN(CCCNC(=O)C(F)(F)F)Cc1ccc2ccccc2c1)C(F)(F)F` ?
Response: 17.1 µM (inactive)

Prompt: Which GI50 is listed for `CCN(CC)C(=O)N[C@@H](Cc1ccccc1)C(=O)NC` ?
Response: > 100 µM (inactive)
